Provenance of the data: the supplement of paper PMC8253809

# Test system: DIPGX7 (H3.3 K27M diffuse intrinsic pontine glioma line)
# EXPERIMENT: growth inhibition (% activity, log2 RLU normalised to DMSO / staurosporine); higher = more growth inhibition
# MEASUREMENT SETUP: 33 µM
Items are presented alongside their recorded growth inhibition.
Write it as a number; the unit % goes unstated.

>>> numeric_value("CCN(CC)CCNC(C(=O)OCCC(C)C)c1ccccc1 (stereo not given)")
4.26
>>> numeric_value("COc1cc2c(cc1Cc1cccc(Cl)c1F)c(=O)c(C(=O)O)cn2[C@H](CO)C(C)C")
3.52
>>> numeric_value("O=C1Cc2cc(CCN3CCN(c4nsc5ccccc45)CC3)c(Cl)cc2N1")
10.1
>>> numeric_value("CCN1CCN(C(=O)N[C@@H](C(=O)N[C@@H]2C(=O)N3[C@@H]2SC(C)(C)[C@@H]3C(=O)O)c2ccccc2)C(=O)C1=O")
-0.734

Given the compound CCC[S+]([O-])c1ccc2[nH]c(NC(=O)OC)nc2c1 (stereo not given) , what is its reported growth inhibition?
1.48
